Test system: DC2.4 cells
protocol_details: In vitro transfection of cells with eGFP-mRNA lipid nanoparticle (LNP preparation), fluorescence imaging and flow cytometry
Type: cell-based, mouse
experimental_parameters: DC2.4 cells, 200 ng of mRNA per well, after 24 hours; 1440 min
# maps each entry to its Cell viability, %
Response body: numeric value in %, unit text excluded.

# count of solved cases: 3
{"compound": "CCCCC/C=C\\C/C=C\\CCCCCCCCOC(=O)CCCCCCCN(CCO)CCCN(CCCCCCCC(=O)OCCCCCCCC/C=C\\C/C=C\\CCCCC)CCCCCCCC(=O)OCCCCCCCC/C=C\\C/C=C\\CCCCC [Example 79]", "units_text": "%", "measured_number": 95.0}
{"compound": "CCCCCCCCCCCOC(=O)CCCCN(CCO)CCCN(CCCCC(=O)OCCCCCCCCCCC)CCCCC(=O)OCCCCCCCCCCC [Example 38]", "units_text": "%", "measured_number": 94.1}
{"compound": "CCCCC/C=C\\C/C=C\\CCCCCCCCOC(=O)CCCN(CCCO)CCCCN(CCCC(=O)OCCCCCCCC/C=C\\C/C=C\\CCCCC)CCCC(=O)OCCCCCCCC/C=C\\C/C=C\\CCCCC [Example 89]", "units_text": "%", "measured_number": 94.0}

Note: attention shifts to another entry.
(Q) Form field: reported Cell viability, % of CCCCCCCCCCCOC(=O)CCCCCCCCCN(CCO)CCCN(CCCCCCCCCC(=O)OCCCCCCCCCCC)CCCCCCCCCC(=O)OCCCCCCCCCCC [Example 91]
(A) 91.4

====

protocol_details: Size and polydispersity index (PDI) of the lipid nanoparticle by dynamic light scattering
Format: physicochemical
experimental_parameters: LNP encapsulating eGFP mRNA, ionizable lipid/DOPE/cholesterol/DMG-PEG2000 50/10/48.25/1.25 mol%, N/P 12
recorded_metric: PDI
Answer with a bare number; do not write a unit.

# count of solved cases: 2
{"compound": "CCCCCCCCCCCOC(=O)/C=C/CN(C/C=C/C(=O)OCCCCCCCCCCC)CCCN(C/C=C/C(=O)OCCCCCCCCCCC)CCCO [Example 106]", "PDI": 0.28}
{"compound": "CCCCCCCCCCCCCCOC(=O)CCCCCCN(CCCCO)CCCN(CCCCCCC(=O)OCCCCCCCCCCCCCC)CCCCCCC(=O)OCCCCCCCCCCCCCC [Example 58]", "PDI": 0.16}

Note: attention shifts to another entry.
(Q) Form field: reported PDI of CCCCCCCCCCCOC(=O)CCCN(CCCO)CCCCCN(CCCC(=O)OCCCCCCCCCCC)CCCC(=O)OCCCCCCCCCCC [Example 83]
(A) 73.54

====

# maps each entry to its Encapsulation rate, %
protocol_details: Encapsulation efficiency of the lipid nanoparticle (eGFP mRNA) by Ribogreen method
Type: physicochemical
experimental_parameters: LNP encapsulating eGFP mRNA, ionizable lipid/DOPE/cholesterol/DMG-PEG2000 50/10/48.25/1.25 mol%, N/P 12
Field note: include the unit after the figure.

# count of solved cases: 10
{"compound": "CC/C=C\\CCCCCOC(=O)CCCCCCCN(CCO)CCCN(CCCCCCCC(=O)OCCCCC/C=C\\CC)CCCCCCCC(=O)OCCCCC/C=C\\CC", "result": "80.59%"}
{"compound": "CCCCCCCCCCCOC(=O)CN(CCCO)CCCN(CC(=O)OCCCCCCCCCCC)CC(=O)OCCCCCCCCCCC", "result": "96.91%"}
{"compound": "CCCCCCCCCCCCCOC(=O)CCCCCCN(CCCCO)CCCN(CCCCCCC(=O)OCCCCCCCCCCCCC)CCCCCCC(=O)OCCCCCCCCCCCCC", "result": "99.50%"}
{"compound": "CCCCCCCCCCCCCOC(=O)CN(CCO)CCCN(CC(=O)OCCCCCCCCCCCCC)CC(=O)OCCCCCCCCCCCCC", "result": "96.23%"}
{"compound": "CCCCCCCCCCCCOC(=O)CCCN(CCO)CCCN(CCCC(=O)OCCCCCCCCCCCC)CCCC(=O)OCCCCCCCCCCCC", "result": "96.63%"}
{"compound": "CCCCCCCCCCCOC(=O)CCCCCCN(CCCCO)CCCN(CCCCCCC(=O)OCCCCCCCCCCC)CCCCCCC(=O)OCCCCCCCCCCC", "result": "99.26%"}
{"compound": "CCCCCC/C=C\\COC(=O)CCCCCCCCCN(CCO)CCCN(CCCCCCCCCC(=O)OC/C=C\\CCCCCC)CCCCCCCCCC(=O)OC/C=C\\CCCCCC [Example 15]", "result": "90.28%"}
{"compound": "CCCCC/C=C\\C/C=C\\CCCCCCCCOC(=O)CCCN(CCCO)CCCCN(CCCC(=O)OCCCCCCCC/C=C\\C/C=C\\CCCCC)CCCC(=O)OCCCCCCCC/C=C\\C/C=C\\CCCCC [Example 89]", "result": "94.22%"}
{"compound": "CCCCCCCCCCCCCOC(=O)CCN(CCCCO)CCCN(CCC(=O)OCCCCCCCCCCCCC)CCC(=O)OCCCCCCCCCCCCC", "result": "99.70%"}
{"compound": "CCCCCCCCCCCCOC(=O)CCCN(CCCO)CCCN(CCCC(=O)OCCCCCCCCCCCC)CCCC(=O)OCCCCCCCCCCCC", "result": "91.22%"}

(Q) Form field: reported Encapsulation rate, % of CC(C)=CCC/C(C)=C/COC(=O)CCCCCCCN(CCO)CCCN(CCCCCCCC(=O)OC/C=C(\C)CCC=C(C)C)CCCCCCCC(=O)OC/C=C(\C)CCC=C(C)C
(A) 95.96%

(Q) And then CCCCCCCCCCCCOC(=O)CCCCCCCN(CCCO)CCCN(CCCCCCCC(=O)OCCCCCCCCCCCC)CCCCCCCC(=O)OCCCCCCCCCCCC , what is it?
(A) 99.28%

(Q) And then CCCCC/C=C\C/C=C\CCCCCCCCOC(=O)CCCCCCCN(CCO)CCCN(CCCCCCCC(=O)OCCCCCCCC/C=C\C/C=C\CCCCC)CCCCCCCC(=O)OCCCCCCCC/C=C\C/C=C\CCCCC [Example 24] , what is it?
(A) 97.73%

(Q) And then CCCCCCCCCCCOC(=O)CCCCCCN(CCCO)CCCN(CCCCCCC(=O)OCCCCCCCCCCC)CCCCCCC(=O)OCCCCCCCCCCC , what is it?
(A) 99.39%

(Q) And then CCCCC/C=C\C/C=C\CCCCCCCCOC(=O)CCCN(CCCO)CCCN(CCCC(=O)OCCCCCCCC/C=C\C/C=C\CCCCC)CCCC(=O)OCCCCCCCC/C=C\C/C=C\CCCCC [Example 81] , what is it?
(A) 99.10%

(Q) And then CCCCCC/C=C\COC(=O)CCCCCCCN(CCO)CCCN(CCCCCCCC(=O)OC/C=C\CCCCCC)CCCCCCCC(=O)OC/C=C\CCCCCC , what is it?
(A) 92.30%

(Q) And then CCCCCCCCCCCCOC(=O)CCCN(CCCO)CCCCN(CCCC(=O)OCCCCCCCCCCCC)CCCC(=O)OCCCCCCCCCCCC [Example 103] , what is it?
(A) 94.31%

(Q) And then CCCCCCCCCCCCCOC(=O)CCCCCN(CCO)CCCN(CCCCCC(=O)OCCCCCCCCCCCCC)CCCCCC(=O)OCCCCCCCCCCCCC , what is it?
(A) 99.66%

(Q) And then CCCCCCCCCCCOC(=O)CCCCCN(CCCCO)CCCN(CCCCCC(=O)OCCCCCCCCCCC)CCCCCC(=O)OCCCCCCCCCCC , what is it?
(A) 99.47%

(Q) And then CCCCCCCCCCCCCCOC(=O)CCCCCCCN(CCCCO)CCCN(CCCCCCCC(=O)OCCCCCCCCCCCCCC)CCCCCCCC(=O)OCCCCCCCCCCCCCC , what is it?
(A) 97.38%

(Q) And then CCCCCCCCCCCOC(=O)CCCCCN(CCCO)CCCN(CCCCCC(=O)OCCCCCCCCCCC)CCCCCC(=O)OCCCCCCCCCCC , what is it?
(A) 99.65%

(Q) And then CCCCCCCCCCCOC(=O)CCCCN(CCO)CCCN(CCCCC(=O)OCCCCCCCCCCC)CCCCC(=O)OCCCCCCCCCCC [Example 38] , what is it?
(A) 99.04%

(Q) And then CCCCCCCCCCCCCCCOC(=O)CCCCCCCN(CCO)CCCN(CCCCCCCC(=O)OCCCCCCCCCCCCCCC)CCCCCCCC(=O)OCCCCCCCCCCCCCCC , what is it?
(A) 78.46%

(Q) And then CCCCCCCCCCCCOC(=O)CCCCCCCN(CCO)CCCN(CCCCCCCC(=O)OCCCCCCCCCCCC)CCCCCCCC(=O)OCCCCCCCCCCCC , what is it?
(A) 99.63%

Values compiled from patent EP4678629A1.
